# Tested on: Mia PaCa-2 cells
# Test Details: ATP assay (ATP depletion / cell viability) in Mia PaCa-2 cells
# Format: cell-based, human
# Test Conditions: Relative activity compare with β-lapachone in ATP depletion of Mia PaCa-2 cells
Test Readout: IC50/IC50 (β-lapachone/Compoud)

{"Chemical Smiles": "CC(C)OC1=CC(=O)C(=O)c2cc(Cl)ccc21", "System": "Mia PaCa-2 cells", "IC50/IC50 (β-lapachone/Compoud)": "1~2"}

Find the recorded IC50/IC50 (β-lapachone/Compoud) belonging to CC(=O)Nc1cccc2c1C(=O)C(OCCN(C)C)=CC2=O and report it.
1~2

Find the recorded IC50/IC50 (β-lapachone/Compoud) belonging to Cc1ccc(S(=O)(=O)Nc2cccc3c2C(=O)C(=O)C=C3OC(C)C)cc1 and report it.
<0.3

Find the recorded IC50/IC50 (β-lapachone/Compoud) belonging to CC(C)OC1=CC(=O)C(=O)c2cccc(Cl)c21 and report it.
<0.3

Find the recorded IC50/IC50 (β-lapachone/Compoud) belonging to CC(C)OC1=CC(=O)c2cccc(NS(C)(=O)=O)c2C1=O and report it.
<0.3

Find the recorded IC50/IC50 (β-lapachone/Compoud) belonging to COC1=CC(=O)C(=O)c2c(NC(C)=O)cccc21 and report it.
1~3

Find the recorded IC50/IC50 (β-lapachone/Compoud) belonging to CC(=O)Nc1cccc2c1C(=O)C(=O)C=C2OCCCO and report it.
<0.3

Find the recorded IC50/IC50 (β-lapachone/Compoud) belonging to CC(C)OC1=CC(=O)C(=O)c2cccc(OCCN3CCOCC3)c21 and report it.
<0.3

Find the recorded IC50/IC50 (β-lapachone/Compoud) belonging to CCCCCCCCOC1=CC(=O)C(=O)c2c(NS(C)(=O)=O)cccc21 and report it.
1~2

Find the recorded IC50/IC50 (β-lapachone/Compoud) belonging to CC(C)OC1=CC(=O)C(=O)c2c(NS(C)(=O)=O)cccc21 and report it.
>3

Find the recorded IC50/IC50 (β-lapachone/Compoud) belonging to O=C1C=C(OC2CCCCC2)c2cccc(Cl)c2C1=O and report it.
0.3~1

Find the recorded IC50/IC50 (β-lapachone/Compoud) belonging to CC(=O)Nc1cccc2c1C(=O)C(OCCN1CCOCC1)=CC2=O and report it.
0.3~1

Find the recorded IC50/IC50 (β-lapachone/Compoud) belonging to CCCCCCOC1=CC(=O)C(=O)c2c(NS(C)(=O)=O)cccc21 and report it.
<0.3

Find the recorded IC50/IC50 (β-lapachone/Compoud) belonging to CCC(CC)OC1=CC(=O)C(=O)c2c(NS(C)(=O)=O)cccc21 and report it.
<0.3

Find the recorded IC50/IC50 (β-lapachone/Compoud) belonging to CC(C)Nc1cccc2c1C(=O)C(OC(C)C)=CC2=O and report it.
<0.3

Find the recorded IC50/IC50 (β-lapachone/Compoud) belonging to O=C1C=C(OC2CCCCC2)c2cc(Cl)ccc2C1=O and report it.
0.3~1

Find the recorded IC50/IC50 (β-lapachone/Compoud) belonging to CC(C)OC1=CC(=O)C(=O)c2ccc(NC(=O)OC(C)(C)C)cc21 and report it.
<0.3

Find the recorded IC50/IC50 (β-lapachone/Compoud) belonging to COCCOCCOCCOCCOC1=CC(=O)C(=O)c2c(NS(C)(=O)=O)cccc21 and report it.
<0.3

Find the recorded IC50/IC50 (β-lapachone/Compoud) belonging to COCCOCCOCCOCCOC1=CC(=O)C(=O)c2c(NC(C)=O)cccc21 and report it.
>3

Find the recorded IC50/IC50 (β-lapachone/Compoud) belonging to CC(C)OC1=C(Br)C(=O)c2ccccc2C1=O and report it.
<0.3

Find the recorded IC50/IC50 (β-lapachone/Compoud) belonging to CC(C)OC1=C(Br)C(=O)C(=O)c2ccccc21 and report it.
<0.3

Find the recorded IC50/IC50 (β-lapachone/Compoud) belonging to CC(C)OC1=CC(=O)C(=O)c2cc3c(cc21)OCO3 and report it.
<0.3

Find the recorded IC50/IC50 (β-lapachone/Compoud) belonging to CCCCCCCCOC1=CC(=O)C(=O)c2c(NC(C)=O)cccc21 and report it.
<0.3

Find the recorded IC50/IC50 (β-lapachone/Compoud) belonging to CC(C)OC1=CC(=O)C(=O)c2cccc(O)c21 and report it.
<0.3

* * *

# Tested on: A549 cells
# Test Details: Cell viability in A549 cells (7-day DNA assay)
# Type: cell-based, human
# Test Conditions: relative to β-lapachone
Below is a list of entries, each paired with its recorded IC50/IC50 (β-lapachone/Compoud) value.

{"Chemical Smiles": "CC(=O)Nc1cccc2c1C(=O)C(=O)C=C2OC(C)C", "Result": ">3"}

Find the recorded IC50/IC50 (β-lapachone/Compoud) belonging to CCCCCCOC1=CC(=O)C(=O)c2c(NC(C)=O)cccc21 and report it.
1~2

* * *

Below is a list of entries, each paired with its recorded IC50/IC50 (β-lapachone/Compoud) value.
# System: Mia PaCa-2 cells
# Test Details: ATP assay (ATP depletion / cell viability) in Mia PaCa-2 cells
# Type: cell-based, human
# Test Conditions: Relative activity compare with β-lapachone in ATP depletion of Mia PaCa-2 cells

Find the recorded IC50/IC50 (β-lapachone/Compoud) belonging to CC(=O)Nc1cccc2c1C(=O)C(=O)C=C2OC1CCCCC1 and report it.
<0.3

Find the recorded IC50/IC50 (β-lapachone/Compoud) belonging to Cc1cc(C)c2c(c1)C(=O)C(=O)C=C2OC(C)C and report it.
<0.3

Find the recorded IC50/IC50 (β-lapachone/Compoud) belonging to COc1cc2c(cc1OC)C(OC(C)C)=CC(=O)C2=O and report it.
<0.3

Find the recorded IC50/IC50 (β-lapachone/Compoud) belonging to COC1=C(C)C(=O)C(=O)c2c(NC(C)=O)cccc21 and report it.
<0.3

Find the recorded IC50/IC50 (β-lapachone/Compoud) belonging to O=C1C=C(OC2CCCCC2)c2cccc(O)c2C1=O and report it.
0.3~1

* * *

# System: MCF-7
# Test Details: Relative survival DNA assay, MCF-7, with or without dicoumarol
# Type: cell-based, human
# Test Conditions: MCF-7, Dic (dicoumarol, NQO1 inhibitor); read-out: Inhibition of cell survival of DNA assay IC50
Test Readout: IC50 (µM)
Give just the numeric value; µM need not be written.

Find the recorded IC50 belonging to CC1(C)CCC2=C(O1)c1ccccc1C(=O)C2=O [β-lapachone, reference compound] and report it.
9.02

* * *

Below is a list of entries, each paired with its recorded IC50/IC50 (β-lapachone/Compoud) value.
# Tested on: Mia PaCa-2 cells
# Test Details: ATP assay (ATP depletion / cell viability) in Mia PaCa-2 cells
# Assay type: cell-based, human
# Test Conditions: Relative activity compare with β-lapachone in ATP depletion of Mia PaCa-2 cells

{"Chemical Smiles": "CC(C)OC1=CC(=O)C(=O)c2c(N)cccc21", "System": "Mia PaCa-2 cells", "IC50/IC50 (β-lapachone/Compoud)": "<0.3"}
{"Chemical Smiles": "CC(C)OC1=CC(=O)C(=O)c2ccc(Cl)cc21", "System": "Mia PaCa-2 cells", "IC50/IC50 (β-lapachone/Compoud)": "1~2"}

Param readout= IC50/IC50 (β-lapachone/Compoud); system= Mia PaCa-2 cells; entry= O=C1C=C(OC2CCCCC2)c2ccc(Br)cc2C1=O ; returns value.
<0.3

* * *

# System: A549
# Test Details: Relative survival DNA assay, A549, with or without dicoumarol
# Assay type: cell-based, human
# Test Conditions: A549, Vehicle; read-out: Inhibition of cell survival of DNA assay IC50
Test Readout: IC50 (µM)
Give just the numeric value; µM need not be written.

Find the recorded IC50 belonging to CC1(C)CCC2=C(O1)c1ccccc1C(=O)C2=O [β-lapachone, reference compound] and report it.
4.94

* * *

# System: Mia PaCa-2 cells
# Test Details: ATP assay (ATP depletion / cell viability) in Mia PaCa-2 cells
# Type: cell-based, human
# Test Conditions: Relative activity compare with β-lapachone in ATP depletion of Mia PaCa-2 cells
Test Readout: IC50/IC50 (β-lapachone/Compoud)

The following compounds have reported results that may help.
{"Compound": "CCC(CC)OC1=CC(=O)C(=O)c2c(NC(C)=O)cccc21 [Compound 52]", "IC50/IC50 (β-lapachone/Compoud)": "<0.3"}
{"Compound": "CC(C)OC1=CC(=O)c2cccc(NC(=O)C(F)(F)F)c2C1=O [Compound 20]", "IC50/IC50 (β-lapachone/Compoud)": "<0.3"}
{"Compound": "CC(C)OC1=C(Cl)C(=O)C(=O)c2ccccc21 [Compound 13]", "IC50/IC50 (β-lapachone/Compoud)": "<0.3"}
{"Compound": "CC(C)OC1=CC(=O)C(=O)c2cccc([N+](=O)[O-])c21 [Compound 7]", "IC50/IC50 (β-lapachone/Compoud)": "0.3~1"}
{"Compound": "CC(=O)Nc1cccc2c1C(=O)C(=O)C=C2OCCN1CCOCC1 [Compound 43]", "IC50/IC50 (β-lapachone/Compoud)": "0.3~1"}

Param readout= IC50/IC50 (β-lapachone/Compoud); system= Mia PaCa-2 cells; entry= CS(=O)(=O)Nc1cccc2c1C(=O)C(=O)C=C2OC1CCCCC1 [Compound 26] ; returns value.
<0.3

Param readout= IC50/IC50 (β-lapachone/Compoud); system= Mia PaCa-2 cells; entry= COCCOCCOC1=CC(=O)C(=O)c2c(NC(C)=O)cccc21 [Compound 49] ; returns value.
0.3~1

Param readout= IC50/IC50 (β-lapachone/Compoud); system= Mia PaCa-2 cells; entry= CC(C)OC1=CC(=O)C(=O)c2ccc(Br)cc21 [Compound 36] ; returns value.
<0.3

Param readout= IC50/IC50 (β-lapachone/Compoud); system= Mia PaCa-2 cells; entry= CC(C)OC1=CC(=O)C(=O)c2cc(Br)ccc21 [Compound 1] ; returns value.
<0.3

Param readout= IC50/IC50 (β-lapachone/Compoud); system= Mia PaCa-2 cells; entry= CC(C)OC1=CC(=O)C(=O)c2c(Cl)cccc21 [Compound 14] ; returns value.
0.3~1

Param readout= IC50/IC50 (β-lapachone/Compoud); system= Mia PaCa-2 cells; entry= CC(C)OC1=CC(=O)C(=O)c2c(NS(=O)(=O)C(F)(F)F)cccc21 [Compound 23] ; returns value.
<0.3

The reported numbers originate from patent US10829427B2.
